Attribution: PubChem BioAssay (NCI)

Test: NCI Yeast Anticancer Drug Screen. Data for the sgs1 mgt1 strain (AID 161);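 also: 0% = growth of cultures given vehicle only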
Settings: S. cerevisiae sgs1 mgt1 strain, at 50.0 µM, hits give high values
Compounds without any hit were thinned out: in the full panel of roughly 79,000, 15% have a hit.
This listing pairs compounds with measured growth inhibition.
Metric: growth inhibition (%)

{"columns": ["Compound", "Observed"],
 "data": [
  ["O=S(=O)(O)c1ccc(Cl)cc1", -1.15],
  ["C1CC[N-]CC1.CN(C)P(=O)(N(C)C)N(C)C.OO.OO.[O]=[Mo]", 15.6],
  ["Cc1ncc(CNC(=O)N(CCCl)N=O)c(N)n1", 6.3],
  ["PCc1ccccc1.[Cl][Hg][Cl]", 14.2],
  ["CCOP(=O)(CCN(C)C)OCC", -4.4],
  ["CS(=O)(=O)c1ccc(COP(N)(=O)N(CCCl)CCCl)cc1 (configuration not stated)", -0.95],
  ["CCCCCCCC/C=C\\CCCCCCCC(=O)OCC(COC(=O)CCCCCCC/C=C\\CCCCCCCC)OC(=O)N(CCCl)CCCl", -18.4],
  ["Cc1c[nH]cn1.Cc1c[nH]cn1.Cc1c[nH]cn1.Cc1c[nH]cn1.Cc1c[nH]cn1.Cc1c[nH]cn1.N#CS.[Mn+2]", 4.35],
  ["CN1C2CCC1CC(OC(=O)/C=C\\c1ccccc1)C2 (configuration not stated)", -5.45],
  ["Oc1ccccc1C=NCCN=Cc1ccccc1O.[Zn+2]", -25.1],
  ["[N-]=[N+]=CC(=O)C1(C(=O)C=[N+]=[N-])CC1", -41],
  ["Nc1nnc(N)n1N", -8.15],
  ["N#CCN(CC#N)[N+](=O)[O-]", -14.2],
  ["C[N+](C)=C(Cl)Cl", -8.1],
  ["CN(C)Cc1c[nH]c2ccc(F)cc12", -15.2],
  ["O=C(c1ccccc1)P(C(=O)c1ccccc1)C(=O)c1ccccc1", 8.2],
  ["CCCC(NC(=O)CCl)C(=O)O (configuration not stated)", -11.4],
  ["CC1(C)N=C(N)N=C(N)N1c1ccc(OCCCOc2ccc(S(=O)(=O)F)cc2)cc1", 89.1],
  ["CCCCCCCCCCOC(=O)c1ccccc1C(=O)OCCCCCCCCCC", -13.8],
  ["O=NN(CCCl)C(=O)O", -5.25],
  ["COc1ccc(CN2CCCN(Cc3ccc(OC)cc3)C2c2ccc(N(CCCl)CCCl)cc2)cc1", 43.8],
  ["CC(Br)C(=O)C(CCN(C)C)(c1ccccc1)c1ccccc1 (configuration not stated)", 7.95],
  ["O=C1NC2(CCCC2)C(=O)N1CCCN(CCCl)CCCl", 25.1],
  ["c1ccc(CCN2CCCCC2)cc1", 10.4],
  ["c1cc[c]([Hg][S]c2nc3ccccc3s2)cc1", -6.05],
  ["CCN1CCOC(O)(c2cc(Cl)cc(Cl)c2Cl)C1 (configuration not stated)", 8.9],
  ["O=C(O)C(Cc1cnc[nH]1)N1C(=O)c2ccccc2C1=O (configuration not stated)", -1]
]}

###

Test: NCI Yeast Anticancer Drug Screen. Data for the mec2-1 strain (AID 157)
Conditions: S. cerevisiae mec2-1 strain, at 50.0 µM, hits give high values
This is part of a sample that, as a whole, favours compounds with a hit. Of some 79,000 tested, about 15% had one in any assay.
Metric: growth inhibition (%)

{"columns": ["Compound", "Readout units", "Observed"],
 "data": [
  ["CC(=O)[O-].CC(=O)[O-].O=C(N/N=C/c1cc(Cl)cc(Cl)c1O)c1ccncc1.[Ni+2]", "%", 18.4],
  ["CNc1ccccc1C(=O)O", "%", -7.3],
  ["COc1cccc(N2CCNCC2)c1", "%", -12.6],
  ["O=C(COc1ccc(Cl)c(Cl)c1)Nc1ccccc1S(=O)(=O)F", "%", -5.35],
  ["CN1C2CCC1CC1(C2)SCCS1", "%", 3.85],
  ["O=P(O)(O)CCP(=O)(O)O", "%", 17.9],
  ["N#CC1=C(C#N)C(=O)C(Cl)=C(Cl)C1=O", "%", 24.9],
  ["COc1cc(-c2ccc(N)c(OC)c2)ccc1N", "%", 7.9],
  ["CC(CO)([N+](=O)[O-])[N+](=O)[O-]", "%", 4.75],
  ["COC(=O)c1c(C(=O)OC)c1=[N+]=[N-]", "%", -5.35],
  ["O=C(CC(=O)C(F)(F)F)c1cccs1.O=C(CC(=O)C(F)(F)F)c1cccs1.O=C(CC(=O)C(F)(F)F)c1cccs1.[Tb]", "%", 20.6],
  ["O=P(O)(O)SP(=O)(O)O.[Zn+2]", "%", 9.55],
  ["COc1cc2c(cc1OC)C13CCN4CC5=CCOC6CC(=O)N2C1C6C5CC43O (configuration not stated)", "%", -30.9],
  ["CC(C)OP(=O)(OCCCO)C(Cl)Cl (configuration not stated)", "%", 17.1],
  ["CC(C)C1C=Cc2ccccc21 (configuration not stated)", "%", 1.85],
  ["N.N.N.N.N.N#Cc1nn[n-]n1.[Cl-].[Co+3]", "%", 9.25],
  ["O=C(O)c1cc([N+](=O)[O-])cc([N+](=O)[O-])c1", "%", 1.3]
]}

###

Assay: NCI Yeast Anticancer Drug Screen. Data for the bub3 strain (AID 167)
Details: S. cerevisiae bub3 mutant strain, at 50.0 µM, hits give high values
Compounds without any hit were thinned out: in the full panel of roughly 79,000, 15% have a hit.
growth inhibition values, listed per item

{"columns": ["Molecule", "growth inhibition, %"],
 "data": [
  ["N#CS.N=C=S.N=C=S.[Co+3].[NH-]CC[NH-].[NH-]CC[NH-]", 27.9],
  ["Cc1ccc2cc3c(ccc4ccccc43)c3c2c1CC3", 13.3],
  ["CC([NH-])C(=O)O.[Cl][Pt][Cl] (stereo unspecified)", -10.6],
  ["[Cl][Hg][c]1cccs1", 99.7],
  ["CCC1CN(CC(=O)c2ccc(Br)cc2)CCO1 (stereo unspecified)", 48.6],
  ["Cn1cc([N+](=O)[O-])c([N+](=O)[O-])c1", -6.3],
  ["COC1OCC(N=[N+]=[N-])C(OC)C1O (stereo unspecified)", 5.65],
  ["CCOP(=O)(OCC)C(C)(C)OC(=O)NC#N", -13.6],
  ["CC(C)NC(=O)C(Cl)CCl (stereo unspecified)", 2.8],
  ["COC[n+]1cccc(C2CCC[N+]2(C)C)c1 (stereo unspecified)", 1.8],
  ["O=C(O)C(O)(Cl)c1cccs1 (stereo unspecified)", -7.15],
  ["NC(Cc1ccccc1)c1nn[nH]n1 (stereo unspecified)", -17.4],
  ["CCOC(OCC)/C(=C\\N(C)C)N=C(C#N)C#N", 3.25],
  ["NCC(Cc1ccccc1)P(=O)(O)O (stereo unspecified)", -28.1],
  ["C=C1C(=O)OC2/C=C(\\C)CC/C=C(/C)CC(OC(=O)/C(=C/CO)CO)C12 (stereo unspecified)", -6],
  ["O=C(NC1CCCCC1)C(Cl)(Cl)Cl", -4.75],
  ["NNC(=S)N/N=C(\\C(=O)Nc1cccc(O)c1)C1C(=O)NC(=S)NC1=O", 2.55],
  ["CCCCCCCCCCCCCCCC(=O)OCC(C[As](=O)(O)O)OC(=O)CCCCCCCCCCCCCCC (stereo unspecified)", -0.15],
  ["O=NNc1cncc(Cl)n1", -0.4],
  ["[N-]=[N+]=CC(=O)C1(C(=O)C=[N+]=[N-])CC1", -16.9],
  ["CN(C)c1ccc(C=C2C(=O)NC(=O)NC2=O)cc1", 14.8]
]}

###

Some compounds, each annotated with its measured growth inhibition.
Experiment: NCI Yeast Anticancer Drug Screen. Data for the mec2-1 strain (AID 157)
Conditions: S. cerevisiae mec2-1 strain, at 50.0 µM, hits give high values
This is part of a sample that, as a whole, favours compounds with a hit. Of some 79,000 tested, about 15% had one in any assay. The source made the active and inactive calls. No stated cut-off is given here; in the data, active means growth inhibition above about 70%; inactive means the rest.

{"columns": ["Compound", "growth inhibition"],
 "data": [
  ["c1ccc(CC[N+]23CC[N+](CCc4ccccc4)(CC2)C3)cc1", "3.2% (inactive)"],
  ["[Cl][Ni][Cl].[NH-]CCN1CC1.[NH-]CCN1CC1", "19.4% (inactive)"],
  ["COc1nc(N2CCNCC2)nc2c1CCCC2", "-10.7% (inactive)"],
  ["C/C(CC(C)(C)N1CC1)=N\\N", "-12.8% (inactive)"],
  ["CC(C)c1cc(C(C)C)c(S(=O)(=O)N=[N+]=[N-])c(C(C)C)c1", "-0.8% (inactive)"],
  ["Cc1cccc(NC(N)=S)c1", "1.55% (inactive)"],
  ["CCc1c2c(c(C)n1C)C(c1ccccc1)=NCC(=O)N2", "21.1% (inactive)"],
  ["O=C(N/N=C/c1cc(Cl)cc(Cl)c1[O-])c1ccccc1O.O=C(N/N=C/c1cc(Cl)cc(Cl)c1[O-])c1ccccc1O.[Cu+2]", "-16.2% (inactive)"],
  ["CC(C)OP(=S)(Oc1ccc(Cl)cc1Cl)OC(C)C", "-11.7% (inactive)"],
  ["O=[N+]([O-])OC(c1ccncc1)C(O[N+](=O)[O-])c1ccncc1 (centres undefined)", "-2.35% (inactive)"],
  ["CO[C@H]1C[C@H](O[C@H]2CC[C@]3(C=O)[C@H]4CC[C@]5(C)[C@@H](C6=CC(=O)OC6)CC[C@]5(O)[C@@H]4CC[C@]3(O)C2)O[C@H](C)[C@H]1O", "-11.3% (inactive)"],
  ["COC1OOC(OC)c2ccccc2-c2ccccc21 (centres undefined)", "-9.7% (inactive)"],
  ["Cc1cccc(CCF)c1", "8.5% (inactive)"],
  ["CCN1CCc2cc(OC)c(OC)cc2C1", "4.7% (inactive)"],
  ["CNC(=O)c1[nH]cnc1/N=N/N(C)N", "91.8% (active)"],
  ["O=C(Nc1c(O)[nH]c(=S)[nH]c1=O)c1ccco1", "-4.8% (inactive)"],
  ["COc1ccc(CC(N)c2nn[nH]n2)cc1 (centres undefined)", "-1% (inactive)"],
  ["[C-]#[O+].[C-]#[O+].[C-]#[O+].[C-]#[O+].[C-]#[O+].[C-]#[O+].[Fe].[Fe].c1ccc([P-]c2ccccc2[P-]c2ccccc2)cc1 (centres undefined)", "26.9% (inactive)"],
  ["O=C(CCc1ccccc1)Nc1ccc(Cl)cc1C(=O)c1ccccc1", "20.2% (inactive)"]
]}
